Taken from ChEMBL document CHEMBL4689842.

# Tested on: HEK-293T
# Experimental protocol: Multiplex assay against HEK293T
# Type: toxicity, cell-based
# Cond: human, 12 h, 1 µM, compound concentration 1 uM, replicate 1
Quantity: Population Healthy Nuclei (%)
One number for each entry, in %.

These recorded examples may help you get a feel for the data.
[
  {
    "Compound": "C=CC(=O)Nc1cccc(C(=O)Nc2ccc(Nc3cc(-c4[nH]c(SC)nc4C)ccn3)cc2)c1",
    "Population Healthy Nuclei (%)": 29
  },
  {
    "Compound": "CN(C)C(=O)N[C@H]1CC[C@H](CCN2CCN(c3cccc(Cl)c3Cl)CC2)CC1.Cl [CARIPRAZINE HYDROCHLORIDE]",
    "Population Healthy Nuclei (%)": 44
  },
  {
    "Compound": "c1cn2cc(-c3ccc4cn[nH]c4c3)nc(Nc3ccc(N4CCOCC4)cc3)c2n1 [ENTOSPLETINIB]",
    "Population Healthy Nuclei (%)": 40
  }
]

Your task in this section: give Population Healthy Nuclei (%) for each listed record.
1. CC(C)(O)CNc1ncc(-c2ccnc(Nc3ccnc(Cl)c3)n2)c(CC2CC2)n1
2. Cc1nc(-c2cn3c(n2)-c2ccc(-c4cnn(C(C)(C)C(N)=O)c4)cc2OCC3)n(C(C)C)n1 [TASELISIB]
3. COc1cc(-n2cnc3cc(-c4ccc(Cl)cc4)sc3c2=O)ccc1OCCN1CCCC1
4. Cc1c(-c2ccc(O)cc2)n(Cc2ccc(OCCN3CCCCCC3)cc2)c2ccc(O)cc12 [BAZEDOXIFENE]
5. COc1ncc(-c2ccc3nccc(-c4ccnnc4)c3c2)cc1NS(=O)(=O)c1ccc(F)cc1F [OMIPALISIB]

Result:
1. 25
2. 44
3. 32
4. 32
5. 18
